Values compiled from paper PMC9482650.

- assayed-system: DLG4_3, P78352
- Sequence (P78352 306-403): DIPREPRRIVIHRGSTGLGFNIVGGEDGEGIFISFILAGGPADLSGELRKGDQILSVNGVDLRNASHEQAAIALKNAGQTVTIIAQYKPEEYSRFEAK
- measurement-notes: holdup assay
- Design: key: below the threshold = too weak to quantify, mostly under pKd 3.1 to 4
- study-conditions: plain residues with an end cap or a label only (N-terminal biotin on a linker: ttds)
measured-quantity: pKd

Some solved cases for reference:
EVVHTPETSV [SLC16A3, O15427] ... 3.94
EMDRRPATVV [PLCB4, Q15147] ... 3.95
DKDPHSETAL [TMIGD1, Q6UXZ0] ... below the threshold
NDPAWDETNL [ARHGEF7, Q14155;Q14155-1] ... below the threshold

Problem: Look up and report measured pKd for this entry: PVRVCEETSL [OTULIN, Q96BN8]
Solution: 3.96

Problem: Query pKd for PRVKPQRSKV [PPP1R13L, Q8WUF5]
Solution: below the threshold

Problem: Supply reported pKd belonging to this binder: SGSRPSATVV [HPV73-E6, Q82005]
Solution: below the threshold

Problem: Identify measured pKd corresponding to FHPLGADSQV [SLC2A1, P11166]
Solution: below the threshold
